Sourced from patent EP4745134A1

Test system: HCT116 MTAP KO cells
Experiment: Inhibitory activity against cell proliferation (CellTiter Glo, 6 days), HCT116 MTAP KO
Assay type: cell-based
Settings: ratio of IC50 HCT116-WT / HCT116 MTAP KO
Experimental: HCT116-WT (ATCC, CCL-247) and HCT116 MTAP KO (Nanjing Cobioer, CBP75002) cells were seeded into white low-transparency sterile 96-well cell culture plates at a density of 250 cells per well respectively, and the culture medium was McCoy's 5A Medium+10% FBS. The plates were placed under the condition of 37°C and 5% CO2 to be cultured overnight. […] The IC50 values for inhibition of the compounds on cell viability were calculated in X1fit 5.0 software. […]

- molecule: "Cc1cc2cc(C(=O)N(Cc3ccc(C(F)(F)F)cn3)N(C)c3nccc4nccnc34)ccc2nc1N [Example 107]"
  Selectivity HCT 116-WT/ HCT116 MTAP KO: 35.15
- molecule: "Cc1cc2cc(C(=O)N(Cc3ccc(-c4scnc4C)cn3)N(C)c3nccc4nccnc34)ccc2nc1N [Example 185]"
  Selectivity HCT 116-WT/ HCT116 MTAP KO: 17.07
- molecule: "Cc1cc2cc(C(=O)N(Cc3ccc(-c4scnc4CF)cn3)N(C)c3ncccn3)ccc2nc1N [Example 242]"
  Selectivity HCT 116-WT/ HCT116 MTAP KO: 27.98
- molecule: "Cc1cc2cc(C(=O)N(Cc3ccc(-c4scnc4C(F)(F)F)cn3)N(C)c3ncccn3)ccc2nc1N [Example 237]"
  Selectivity HCT 116-WT/ HCT116 MTAP KO: 36.97

====

Quick reference: Selectivity HCT 116-WT/ HCT116 MTAP KO of the listed items.
Tested on: HCT116 MTAP KO cells
Experiment: Inhibitory activity against cell proliferation (CellTiter Glo, 6 days), HCT116 MTAP KO
Format: cell-based
Conditions: ratio of IC50 HCT116-WT / HCT116 MTAP KO
Protocol: HCT116-WT (ATCC, CCL-247) and HCT116 MTAP KO (Nanjing Cobioer, CBP75002) cells were seeded into white low-transparency sterile 96-well cell culture plates at a density of 250 cells per well respectively, and the culture medium was McCoy's 5A Medium+10% FBS. The plates were placed under the condition of 37°C and 5% CO2 to be cultured overnight. […] The IC50 values for inhibition of the compounds on cell viability were calculated in X1fit 5.0 software. […]
measure: Selectivity HCT 116-WT/ HCT116 MTAP KO

- structure notation: "Cc1cc2cc(C(=O)N(Cc3ccc(I)cn3)N(C)c3ncccn3)ccc2nc1N"
  system tested: "HCT116 MTAP KO cells"
  recorded number: 23.76
- structure notation: "C=Cc1cc2cc(C(=O)N(Cc3ccc(C(F)(F)F)cn3)N(C)c3ncccn3)ccc2nc1N"
  system tested: "HCT116 MTAP KO cells"
  recorded number: 17.81
- structure notation: "[2H]C([2H])([2H])c1cc2cc(C(=O)N(Cc3ccc(-c4scnc4C)cn3)N(c3ncccn3)C3CC3)ccc2nc1N"
  system tested: "HCT116 MTAP KO cells"
  recorded number: 19.55
- structure notation: "Cc1cc2cc(C(=O)N(Cc3ccc(-c4ccc(N5CCN(C)C(=O)C5)nc4)cn3)N(C)c3ncccn3)ccc2nc1N"
  system tested: "HCT116 MTAP KO cells"
  recorded number: 23.10
